Cited source for all entries: patent US7417156B2

- Test system: RPMI-8226
- assay.method.text: NCI 60 cell line panel screen (SRB)
- Type: cell-based, human
- settings: RPMI-8226 (Leukemia); LC50: PG=−50
observable: Log10LC50

>>> observed_result("CC1CCC2C(C)C(CC(O)(CC3OC4OC5(C)CCC6C(C)CCC(C3C)C46OO5)CS(=O)(=O)c3ccc(C(=O)O)cc3)OC3OC4(C)CCC1C32OO4 (stereo not shown) [Compound 10c]")
">−4.30 log10M"
>>> observed_result("CC1CCC2C(C)C(CC(COC(=O)c3cc[n+]([O-])cc3)CC3OC4OC5(C)CCC6C(C)CCC(C3C)C46OO5)OC3OC4(C)CCC1C32OO4 (stereo not shown)")
">−4.30 log10M"
>>> observed_result("C[C@@H]1CC[C@H]2[C@@H](C)C(=O)O[C@@H]3O[C@]4(C)CC[C@@H]1[C@]32OO4")
">−4.00 log10M"
>>> observed_result("CC1CCC2C(C)C(CC(O)(CO)CC3OC4OC5(C)CCC6C(C)CCC(C3C)C46OO5)OC3OC4(C)CCC1C32OO4 (stereo not shown)")
">−4.00 log10M"

---

- Tested on: 60 cell line panel
- Format: cell-based
- settings: mean value over the 60 cell line panel
observable: Log10TGI50 MG MID (log10M)

>>> observed_result("C[C@@H]1CC[C@H]2[C@@H](C)C(CC(O)(CC3OC4O[C@]5(C)CC[C@H]6[C@H](C)CC[C@@H]([C@H]3C)C46OO5)c3ccc(C(=O)O)cc3)OC3O[C@]4(C)CCC1C32OO4 (some centres unmarked) [Compound 11b]")
"−5.12"
>>> observed_result("CC1CCC2C(C)C(CC(O)(CO)CC3OC4OC5(C)CCC6C(C)CCC(C3C)C46OO5)OC3OC4(C)CCC1C32OO4 (centres unmarked) [Compound 5, bis-trioxane vicinal diol]")
"−4.50"
>>> observed_result("CC1CCC2C(C)C(CC(CO)CC3OC4OC5(C)CCC6C(C)CCC(C3C)C46OO5)OC3OC4(C)CCC1C32OO4 (centres unmarked) [Compound 4, bis-trioxane primary alcohol]")
"−4.87"
>>> observed_result("CC1CCC2C(C)C(CC(COCC(=O)O)CC3OC4OC5(C)CCC6C(C)CCC(C3C)C46OO5)OC3OC4(C)CCC1C32OO4 (centres unmarked) [Compound 12b, bis-trioxane O-acetic acid]")
"−4.81"
>>> observed_result("CC1CCC2C(C)C(CC(COC(=O)CCC(=O)O)CC3OC4OC5(C)CCC6C(C)CCC(C3C)C46OO5)OC3OC4(C)CCC1C32OO4 (centres unmarked) [Compound 8a, bis-trioxane primary succinate monoester]")
"−5.04"

---

- Tested on: SK-MEL-5
- assay.method.text: NCI 60 cell line panel screen (SRB)
- Format: cell-based, human
- settings: SK-MEL-5 (Melanoma); TGI: PG=0
observable: Log10TGI50

>>> observed_result("CC1CCC2C(C)C(CC(COC(=O)c3cc[n+]([O-])cc3)CC3OC4OC5(C)CCC6C(C)CCC(C3C)C46OO5)OC3OC4(C)CCC1C32OO4 (stereo not shown)")
"−5.28 log10M"
>>> observed_result("CC1CCC2C(C)C(CC(CO)CC3OC4OC5(C)CCC6C(C)CCC(C3C)C46OO5)OC3OC4(C)CCC1C32OO4 (stereo not shown)")
"−7.18 log10M"
>>> observed_result("C[C@@H]1CC[C@H]2[C@@H](C)C(=O)O[C@@H]3O[C@]4(C)CC[C@@H]1[C@]32OO4")
">−4.00 log10M"
>>> observed_result("CC1CCC2C(C)C(CC(O)(CO)CC3OC4OC5(C)CCC6C(C)CCC(C3C)C46OO5)OC3OC4(C)CCC1C32OO4 (stereo not shown)")
"−4.64 log10M"

---

- Test system: COLO 205
- assay.method.text: NCI 60 cell line panel screen (SRB)
- Assay type: cell-based, human
- settings: COLO 205 (Colon Cancer); TGI: PG=0
observable: Log10TGI50

>>> observed_result("CC1CCC2C(C)C(CC(COC(=O)c3cc[n+]([O-])cc3)CC3OC4OC5(C)CCC6C(C)CCC(C3C)C46OO5)OC3OC4(C)CCC1C32OO4 (centres unmarked)")
">−4.30 log10M"
>>> observed_result("CC1CCC2C(C)C(CC(COC(=O)CCC(=O)O)CC3OC4OC5(C)CCC6C(C)CCC(C3C)C46OO5)OC3OC4(C)CCC1C32OO4 (centres unmarked) [Compound 8a, bis-trioxane primary succinate monoester]")
"−6.29 log10M"
>>> observed_result("C[C@@H]1CC[C@H]2[C@@H](C)C(CC(O)(CC3OC4O[C@]5(C)CC[C@H]6[C@H](C)CC[C@@H]([C@H]3C)C46OO5)c3ccc(C(=O)O)cc3)OC3O[C@]4(C)CCC1C32OO4 (some centres unmarked) [Compound 11b]")
"−6.99 log10M"
>>> observed_result("CC1CCC2C(C)C(CC(O)(CO)CC3OC4OC5(C)CCC6C(C)CCC(C3C)C46OO5)OC3OC4(C)CCC1C32OO4 (centres unmarked)")
"−4.87 log10M"
>>> observed_result("CC1CCC2C(C)C(CC(COCC(=O)O)CC3OC4OC5(C)CCC6C(C)CCC(C3C)C46OO5)OC3OC4(C)CCC1C32OO4 (centres unmarked) [Compound 12b, bis-trioxane O-acetic acid]")
"−5.28 log10M"

---

- Tested on: RXF 393
- assay.method.text: NCI 60 cell line panel screen (SRB)
- Format: cell-based, human
- settings: Renal Cancer, RXF 393
observable: Log10GI50

>>> observed_result("CC1CCC2C(C)C(CC(O)(CO)CC3OC4OC5(C)CCC6C(C)CCC(C3C)C46OO5)OC3OC4(C)CCC1C32OO4 (stereo not shown)")
"−4.89"
>>> observed_result("CC(=O)O[C@H]1C(=O)[C@@]2(C)[C@H]([C@H](OC(=O)c3ccccc3)[C@]3(O)C[C@H](OC(=O)[C@H](O)[C@@H](NC(=O)c4ccccc4)c4ccccc4)C(C)=C1C3(C)C)[C@]1(OC(C)=O)CO[C@@H]1C[C@@H]2O [Paclitaxel, paclitaxel, reference compound]")
"−8.32"
>>> observed_result("C[C@@H]1CC[C@H]2[C@@H](C)C(CC(O)(COC(=O)CCC(=O)O)CC3OC4O[C@]5(C)CC[C@H]6[C@H](C)CC[C@@H]([C@H]3C)C46OO5)OC3O[C@]4(C)CCC1C32OO4 (stereo partly shown) [Compound 9, tertiary alcohol primary succinate ester]")
"−7.67"

---

- System: 786-0
- assay.method.text: NCI 60 cell line panel screen (SRB)
- Assay type: cell-based, human
- settings: Renal Cancer, 786-0
Threshold -7. Log10GI50 below it: label 1. Log10GI50 at it or above: label 0.

>>> answer_label("CC1CCC2C(C)C(CC(O)(CO)CC3OC4OC5(C)CCC6C(C)CCC(C3C)C46OO5)OC3OC4(C)CCC1C32OO4 (stereo not shown) [Compound 5, bis-trioxane vicinal diol]")
"label 0"
>>> answer_label("CC1CCC2C(C)C(CC(COC(=O)c3cc[n+]([O-])cc3)CC3OC4OC5(C)CCC6C(C)CCC(C3C)C46OO5)OC3OC4(C)CCC1C32OO4 (stereo not shown) [Compound 13]")
"label 1"
>>> answer_label("CC1CCC2C(C)C(CC(COC(=O)CCC(=O)O)CC3OC4OC5(C)CCC6C(C)CCC(C3C)C46OO5)OC3OC4(C)CCC1C32OO4 (stereo not shown) [Compound 8a, bis-trioxane primary succinate monoester]")
"label 0"
>>> answer_label("CC1CCC2C(C)C(CC(CO)CC3OC4OC5(C)CCC6C(C)CCC(C3C)C46OO5)OC3OC4(C)CCC1C32OO4 (stereo not shown) [Compound 4, bis-trioxane primary alcohol]")
"label 1"
>>> answer_label("CC1CCC2C(C)C(CC(O)(CC3OC4OC5(C)CCC6C(C)CCC(C3C)C46OO5)CS(=O)(=O)c3ccc(C(=O)O)cc3)OC3OC4(C)CCC1C32OO4 (stereo not shown) [Compound 10c]")
"label 1"
>>> answer_label("C[C@@H]1CC[C@H]2[C@@H](C)C(CC(O)(COC(=O)CCC(=O)O)CC3OC4O[C@]5(C)CC[C@H]6[C@H](C)CC[C@@H]([C@H]3C)C46OO5)OC3O[C@]4(C)CCC1C32OO4 (stereo partly shown) [Compound 9, tertiary alcohol primary succinate ester]")
"label 1"
>>> answer_label("CC(=O)O[C@H]1C(=O)[C@@]2(C)[C@H]([C@H](OC(=O)c3ccccc3)[C@]3(O)C[C@H](OC(=O)[C@H](O)[C@@H](NC(=O)c4ccccc4)c4ccccc4)C(C)=C1C3(C)C)[C@]1(OC(C)=O)CO[C@@H]1C[C@@H]2O [Paclitaxel, paclitaxel, reference compound]")
"label 1"
>>> answer_label("CC1CCC2C(C)C(CC(COCC(=O)O)CC3OC4OC5(C)CCC6C(C)CCC(C3C)C46OO5)OC3OC4(C)CCC1C32OO4 (stereo not shown) [Compound 12b, bis-trioxane O-acetic acid]")
"label 0"
>>> answer_label("C[C@@H]1CC[C@H]2[C@@H](C)C(=O)O[C@@H]3O[C@]4(C)CC[C@@H]1[C@]32OO4 [Artemisinin]")
"label 0"
